- system_name: GABAA α1β2γ2 (Homo sapiens, UniProt P14867+P47870)
- Construct: expressed in transfected cells; host or cells: HEK293 expressing the Tetracycline repressor protein
- Sequence (P14867 28-456): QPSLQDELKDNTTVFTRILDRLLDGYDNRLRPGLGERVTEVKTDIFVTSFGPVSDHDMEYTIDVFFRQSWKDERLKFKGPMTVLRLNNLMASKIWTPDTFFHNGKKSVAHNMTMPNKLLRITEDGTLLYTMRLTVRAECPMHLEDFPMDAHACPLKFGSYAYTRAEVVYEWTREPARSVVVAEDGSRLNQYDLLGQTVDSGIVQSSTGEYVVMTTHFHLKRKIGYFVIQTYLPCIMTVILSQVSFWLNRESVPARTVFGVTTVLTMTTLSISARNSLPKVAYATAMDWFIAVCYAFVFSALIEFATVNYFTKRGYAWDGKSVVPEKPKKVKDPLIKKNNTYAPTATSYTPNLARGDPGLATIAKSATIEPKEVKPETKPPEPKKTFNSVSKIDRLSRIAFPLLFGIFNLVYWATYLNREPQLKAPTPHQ
- Sequence (P47870 25-512 limits assumed): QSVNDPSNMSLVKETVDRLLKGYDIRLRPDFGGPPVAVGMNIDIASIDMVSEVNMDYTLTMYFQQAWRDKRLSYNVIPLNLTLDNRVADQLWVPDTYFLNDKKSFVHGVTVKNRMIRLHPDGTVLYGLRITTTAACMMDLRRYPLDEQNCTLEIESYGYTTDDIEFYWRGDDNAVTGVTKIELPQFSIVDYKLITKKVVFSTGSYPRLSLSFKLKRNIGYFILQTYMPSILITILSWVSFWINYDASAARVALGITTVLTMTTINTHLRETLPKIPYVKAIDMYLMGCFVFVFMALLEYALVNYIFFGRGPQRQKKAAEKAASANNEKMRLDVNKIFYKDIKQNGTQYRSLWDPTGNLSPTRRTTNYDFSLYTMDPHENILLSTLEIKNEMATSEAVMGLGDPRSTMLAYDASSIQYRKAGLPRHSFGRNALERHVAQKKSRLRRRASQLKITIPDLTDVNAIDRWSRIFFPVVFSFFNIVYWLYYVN
- Sequence (P18507 40-475 partner): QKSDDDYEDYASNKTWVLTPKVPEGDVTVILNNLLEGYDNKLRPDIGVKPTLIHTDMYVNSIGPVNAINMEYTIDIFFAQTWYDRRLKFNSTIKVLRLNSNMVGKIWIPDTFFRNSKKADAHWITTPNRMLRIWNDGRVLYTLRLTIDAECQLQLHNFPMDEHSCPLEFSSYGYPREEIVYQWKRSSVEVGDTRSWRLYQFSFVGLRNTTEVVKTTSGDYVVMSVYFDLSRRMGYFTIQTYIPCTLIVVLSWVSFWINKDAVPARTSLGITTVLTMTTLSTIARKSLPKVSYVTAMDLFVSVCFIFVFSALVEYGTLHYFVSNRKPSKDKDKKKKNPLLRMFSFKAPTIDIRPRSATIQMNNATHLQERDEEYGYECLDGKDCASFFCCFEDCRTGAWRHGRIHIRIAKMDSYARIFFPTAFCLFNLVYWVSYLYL
- assay: Automated patch clamp electrophysiology (SyncroPatch), PAM mode, GABAA α1β2γ2 cell line
- Assay type: cell-based
- condition_summary: maximum fold increase in current relative to Allopregnanolone, PAM mode, GABA EC20 14 μM; read-out: GABAA α1β2γ2 PAM % Emax (to Allo)

# compound, system_name, Emax
data = [
    ("CC1([C@H]2CC[C@H]3[C@@H]4CC[C@H]5C[C@](C)(O)CC[C@]5(C)[C@H]4CC[C@]23C)COC1 [Example 1]", "GABAA α1β2γ2 (Homo sapiens, UniProt P14867+P47870)", "< 50%"),
    ("CC1([C@H]2CC[C@H]3[C@@H]4CC[C@@H]5C[C@](C)(O)CC[C@@H]5[C@H]4CC[C@]23C)COC1 [Example 2]", "GABAA α1β2γ2 (Homo sapiens, UniProt P14867+P47870)", "> 90%"),
    ("C[C@@]1(O)CC[C@H]2[C@H](CC[C@@H]3[C@@H]2CC[C@]2(C)[C@@H](C4(CF)COC4)CC[C@@H]32)C1 [Example 14]", "GABAA α1β2γ2 (Homo sapiens, UniProt P14867+P47870)", "> 90%"),
]

====

Form field: Emax (one value per entry).
- system_name: GABAA α4β3δ (Homo sapiens, UniProt P28472+P48169)
- Construct: expressed in transfected cells; host or cells: HEK293 expressing the Tetracycline repressor protein
- Sequence (P48169 36-554): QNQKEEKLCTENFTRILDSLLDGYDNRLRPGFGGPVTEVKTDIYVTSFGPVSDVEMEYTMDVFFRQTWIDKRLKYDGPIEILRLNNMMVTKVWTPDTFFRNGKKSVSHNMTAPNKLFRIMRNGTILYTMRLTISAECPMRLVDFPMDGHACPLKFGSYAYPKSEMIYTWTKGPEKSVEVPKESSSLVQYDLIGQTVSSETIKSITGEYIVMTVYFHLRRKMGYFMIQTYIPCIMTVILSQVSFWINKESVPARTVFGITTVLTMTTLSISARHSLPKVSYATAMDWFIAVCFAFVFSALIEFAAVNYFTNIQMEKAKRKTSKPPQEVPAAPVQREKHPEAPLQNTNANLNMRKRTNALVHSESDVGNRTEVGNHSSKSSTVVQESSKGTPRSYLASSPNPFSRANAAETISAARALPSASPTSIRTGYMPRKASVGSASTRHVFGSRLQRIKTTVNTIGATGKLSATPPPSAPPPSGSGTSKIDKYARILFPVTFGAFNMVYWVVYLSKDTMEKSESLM
- Sequence (P28472 26-473): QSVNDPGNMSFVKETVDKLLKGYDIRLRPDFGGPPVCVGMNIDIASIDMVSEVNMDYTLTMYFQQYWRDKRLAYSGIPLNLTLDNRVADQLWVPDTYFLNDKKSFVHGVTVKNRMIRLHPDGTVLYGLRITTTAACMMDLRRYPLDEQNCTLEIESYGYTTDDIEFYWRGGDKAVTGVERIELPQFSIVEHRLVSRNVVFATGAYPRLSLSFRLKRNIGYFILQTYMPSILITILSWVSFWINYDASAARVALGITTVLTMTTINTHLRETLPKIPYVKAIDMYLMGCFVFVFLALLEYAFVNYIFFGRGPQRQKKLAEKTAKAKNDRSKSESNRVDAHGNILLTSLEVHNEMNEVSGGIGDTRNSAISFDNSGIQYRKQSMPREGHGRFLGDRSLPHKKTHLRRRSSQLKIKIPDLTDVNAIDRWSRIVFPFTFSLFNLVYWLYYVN
- Sequence (O14764 17-452 partner limits assumed): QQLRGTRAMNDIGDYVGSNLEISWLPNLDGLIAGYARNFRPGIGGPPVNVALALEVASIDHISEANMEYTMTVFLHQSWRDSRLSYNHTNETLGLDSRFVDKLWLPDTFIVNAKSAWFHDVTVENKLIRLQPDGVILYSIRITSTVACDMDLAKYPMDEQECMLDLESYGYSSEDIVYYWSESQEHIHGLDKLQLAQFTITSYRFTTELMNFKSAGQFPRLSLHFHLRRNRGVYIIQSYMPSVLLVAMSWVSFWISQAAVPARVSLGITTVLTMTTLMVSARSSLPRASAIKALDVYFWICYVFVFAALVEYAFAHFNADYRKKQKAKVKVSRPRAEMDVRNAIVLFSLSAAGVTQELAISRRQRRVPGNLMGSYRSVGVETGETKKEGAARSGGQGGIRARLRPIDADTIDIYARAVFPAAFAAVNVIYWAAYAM
- assay: Automated patch clamp electrophysiology (SyncroPatch), PAM mode, GABAA α4β3δ cell line
- Format: cell-based
- condition_summary: maximum fold increase in current relative to Allopregnanolone, PAM mode, GABA EC20 10 μM; read-out: GABAA α4β3δ PAM % Emax (to Allo)
reported_metric: Emax

# compound, system_name, reported_metric, test_value
measured = [
    ("C[C@@]1(O)CC[C@H]2[C@H](CC[C@@H]3[C@@H]2CC[C@]2(C)[C@@H](C4(C(F)F)COC4)CC[C@@H]32)C1 [Example 19]", "GABAA α4β3δ (Homo sapiens, UniProt P28472+P48169)", "Emax", "> 90%"),
    ("CC1([C@H]2CC[C@H]3[C@@H]4CC[C@@H]5C[C@](C)(O)CC[C@@H]5[C@H]4CC[C@]23C)CCOC1 (stereo partly drawn) [Example 7]", "GABAA α4β3δ (Homo sapiens, UniProt P28472+P48169)", "Emax", "> 90%"),
    ("C[C@@]1(O)CC[C@H]2[C@H](CC[C@@H]3[C@@H]2CC[C@]2(C)[C@@H](C4COC4)CC[C@@H]32)C1 [Example 23]", "GABAA α4β3δ (Homo sapiens, UniProt P28472+P48169)", "Emax", "50 to 90%"),
    ("C[C@@]1(O)CC[C@H]2[C@H](CC[C@@H]3[C@@H]2CC[C@]2(C)[C@@H](C4(CC5CC5)COC4)CC[C@@H]32)C1 [Example 9]", "GABAA α4β3δ (Homo sapiens, UniProt P28472+P48169)", "Emax", "> 90%"),
    ("C[C@@]1(O)CC[C@H]2[C@H](CC[C@@H]3[C@@H]2CC[C@]2(C)[C@@H](C4(CC#N)COC4)CC[C@@H]32)C1 [Example 13]", "GABAA α4β3δ (Homo sapiens, UniProt P28472+P48169)", "Emax", "< 50%"),
    ("CC1([C@H]2CC[C@H]3[C@@H]4CC[C@H]5C[C@](C)(O)CC[C@]5(C)[C@H]4CC[C@]23C)COC1 [Example 1]", "GABAA α4β3δ (Homo sapiens, UniProt P28472+P48169)", "Emax", "< 50%"),
]

====

- system_name: GABAA α4β3δ (Homo sapiens, UniProt P28472+P48169)
- Construct: expressed in transfected cells; host or cells: HEK293 expressing the Tetracycline repressor protein
- assay: Automated patch clamp electrophysiology (SyncroPatch), PAM mode, GABAA α4β3δ cell line
- Type: cell-based
- condition_summary: PAM mode, HEK293 cells expressing human GABAA α4β3δ, GABA EC20 10 μM; read-out: GABAA α4β3δ PAM EC50
pEC50: −log10 of the molar value.
Form field: pEC50 (one value per entry).
reported_metric: pEC50

# compound, test_value
data = [
    ("C[C@@]1(O)CC[C@H]2[C@H](CC[C@@H]3[C@@H]2CC[C@]2(C)[C@@H](C4(CF)COC4)CC[C@@H]32)C1", "6.00 to 6.30"),
    ("C[C@@]1(O)CC[C@H]2[C@H](CC[C@@H]3[C@@H]2CC[C@]2(C)[C@@H](C4(CC5CC5)COC4)CC[C@@H]32)C1", "< 5.82"),
    ("CC1([C@H]2CC[C@H]3[C@@H]4CC[C@@H]5C[C@](C)(O)CC[C@@H]5[C@H]4CC[C@]23C)CCOC1 (stereo partly drawn)", "6.00 to 6.30"),
    ("C[C@@]1(O)CC[C@H]2[C@H](CC[C@@H]3[C@@H]2CC[C@]2(C)[C@@H](C4(C(F)F)COC4)CC[C@@H]32)C1", "> 6.30"),
    ("C[C@@]1(O)CC[C@H]2[C@H](CC[C@@H]3[C@@H]2CC[C@]2(C)[C@@H](C4(CC(F)(F)F)COC4)CC[C@@H]32)C1", "> 6.30"),
    ("C#CC1([C@H]2CC[C@H]3[C@@H]4CC[C@@H]5C[C@](C)(O)CC[C@@H]5[C@H]4CC[C@]23C)COC1", "< 5.82"),
]

====

- system_name: GABAA α1β2γ2 (Homo sapiens, UniProt P14867+P47870)
- Construct: expressed in transfected cells; host or cells: HEK293 expressing the Tetracycline repressor protein
- assay: Automated patch clamp electrophysiology (SyncroPatch), PAM mode, GABAA α1β2γ2 cell line
- Type: cell-based
- condition_summary: maximum fold increase in current relative to Allopregnanolone, PAM mode, GABA EC20 14 μM; read-out: GABAA α1β2γ2 PAM % Emax (to Allo)
Form field: Emax (one value per entry).

# compound, Emax
measured = [
    ("CC(=O)[C@H]1CC[C@H]2[C@@H]3CC[C@H]4C[C@H](O)CC[C@]4(C)[C@H]3CC[C@]12C [allopregnanolone, 5α-pregnane-3α-ol-20-one, reference compound]", "> 90%"),
    ("CC1([C@H]2CC[C@H]3[C@@H]4CC[C@H]5C[C@H](O)CC[C@]5(C)[C@H]4CC[C@]23C)CCO1 (stereo partly drawn) [Example 3]", "< 50%"),
    ("CC1([C@H]2CC[C@H]3[C@@H]4CC[C@@H]5C[C@](C)(O)CC[C@@H]5[C@H]4CC[C@]23C)CCOC1 (stereo partly drawn) [Example 7]", "> 90%"),
    ("C[C@@]1(O)CC[C@H]2[C@H](CC[C@@H]3[C@@H]2CC[C@]2(C)[C@@H](C4(C5CC5)COC4)CC[C@@H]32)C1 [Example 21]", "> 90%"),
    ("CC1([C@H]2CC[C@H]3[C@@H]4CC[C@H]5C[C@H](O)CC[C@]5(C)[C@H]4CC[C@]23C)COC1 [Example 5]", "50 to 90%"),
    ("C[C@@]1(O)CC[C@H]2[C@H](CC[C@@H]3[C@@H]2CC[C@]2(C)[C@@H](C4(CC#N)COC4)CC[C@@H]32)C1 [Example 13]", "> 90%"),
]

====

Form field: EC50 (one value per entry).
- system_name: GABAA α1β2γ2 (Homo sapiens, UniProt P14867+P47870)
- Construct: expressed in transfected cells; host or cells: HEK293 expressing the Tetracycline repressor protein
- assay: Automated patch clamp electrophysiology (SyncroPatch), PAM mode, GABAA α1β2γ2 cell line
- Assay type: cell-based
- condition_summary: PAM mode, HEK293 cells expressing human GABAA α1β2γ2, GABA EC20 14 μM; read-out: GABAA α1β2γ2 PAM EC50

# compound, system_name, EC50
measured = [
    ("C[C@@]1(O)CC[C@H]2[C@H](CC[C@@H]3[C@@H]2CC[C@]2(C)[C@@H](C4COC4)CC[C@@H]32)C1", "GABAA α1β2γ2 (Homo sapiens, UniProt P14867+P47870)", "< 500 nM"),
    ("C[C@@]1(O)CC[C@H]2[C@H](CC[C@@H]3[C@@H]2CC[C@]2(C)[C@@H](C4(CC#N)COC4)CC[C@@H]32)C1", "GABAA α1β2γ2 (Homo sapiens, UniProt P14867+P47870)", "1000 to 1500 nM"),
    ("CC1([C@H]2CC[C@H]3[C@@H]4CC[C@@H]5C[C@](C)(O)CC[C@@H]5[C@H]4CC[C@]23C)COC1", "GABAA α1β2γ2 (Homo sapiens, UniProt P14867+P47870)", "1000 to 1500 nM"),
    ("C[C@@]1(O)CC[C@H]2[C@H](CC[C@@H]3[C@@H]2CC[C@]2(C)[C@@H](C4(CC(F)(F)F)COC4)CC[C@@H]32)C1", "GABAA α1β2γ2 (Homo sapiens, UniProt P14867+P47870)", "< 500 nM"),
    ("C[C@@]1(O)CC[C@H]2[C@H](CC[C@@H]3[C@@H]2CC[C@]2(C)[C@@H](C4(Cn5cc(C#N)cn5)COC4)CC[C@@H]32)C1", "GABAA α1β2γ2 (Homo sapiens, UniProt P14867+P47870)", "< 500 nM"),
    ("C[C@@]1(O)CC[C@H]2[C@H](CC[C@@H]3[C@@H]2CC[C@]2(C)[C@@H](C4(C5CC5)COC4)CC[C@@H]32)C1", "GABAA α1β2γ2 (Homo sapiens, UniProt P14867+P47870)", "500 to 1000 nM"),
    ("CC1([C@H]2CC[C@H]3[C@@H]4CC[C@@H]5C[C@](C)(O)CC[C@@H]5[C@H]4CC[C@]23C)CCOC1 (some centres unmarked)", "GABAA α1β2γ2 (Homo sapiens, UniProt P14867+P47870)", "500 to 1000 nM"),
    ("C[C@@]1(O)CC[C@H]2[C@H](CC[C@@H]3[C@@H]2CC[C@]2(C)[C@@H](C4(CF)COC4)CC[C@@H]32)C1", "GABAA α1β2γ2 (Homo sapiens, UniProt P14867+P47870)", "1000 to 1500 nM"),
    ("CC1([C@H]2CC[C@H]3[C@@H]4CC[C@@H]5C[C@H](O)CC[C@]5(C)[C@H]4CC[C@]23C)COC1", "GABAA α1β2γ2 (Homo sapiens, UniProt P14867+P47870)", "< 500 nM"),
    ("C[C@@]1(O)CC[C@H]2[C@H](CC[C@@H]3[C@@H]2CC[C@]2(C)[C@@H](C4(F)COC4)CC[C@@H]32)C1", "GABAA α1β2γ2 (Homo sapiens, UniProt P14867+P47870)", "< 500 nM"),
    ("CC1([C@H]2CC[C@H]3[C@@H]4CC[C@H]5C[C@H](O)CC[C@]5(C)[C@H]4CC[C@]23C)CCO1 (some centres unmarked)", "GABAA α1β2γ2 (Homo sapiens, UniProt P14867+P47870)", "1000 to 1500 nM"),
]
